testMethodNotes: Secondary qRT-PCR qHTS assay for selected Zika virus inhibitors
protocolConditions: Vero cells ZIKV infection, NS5 RNA qRT-PCR, 24 h; series mostly up to 32.6 µM
Inconclusive results are not listed. Active and inactive are the calls of the source. Calls come from the whole dose curve; as a rule, active = well fitted inhibition curve with a large enough effect; inconclusive = small, poorly fitted or top-dose-only effect; inactive = flat fitted curve, though single readings scatter.
Your response should consist of one outcome taken from active, inactive

Problem: Write down the call the test reported for this compound. Item: "CC(C)C[C@H](C(=O)O)c1cc(-c2ccc(C(F)(F)F)cc2)cc(-c2ccc(C(F)(F)F)cc2)c1"
Result: active

Problem: Write down the call the test reported for this compound. Item: "COc1cc(C(=O)NS(=O)(=O)c2ccccc2C)ccc1Cc1cn(C)c2ccc(NC(=O)OC3CCCC3)cc12"
Result: inactive

Problem: Assay result, entry "Cc1nc(C2CCCCC2)c(-c2ccc(S(N)(=O)=O)c(F)c2)o1" — outcome?
Result: inactive

Problem: Record lookup: outcome of this test for "Oc1cc2ccccc2c2ccccc12" ?
Result: active

Problem: Outcome? CC1(C)CC[C@]2(C(=O)O)CC[C@]3(C)C(=CCC4[C@@]5(C)C[C@@H](O)[C@H](O)C(C)(C)C5CC[C@]43C)C2C1 (some centres undefined)
Result: inactive

Problem: Could you kindly confirm the outcome this assay logged for "O=S(=O)(O)c1ccc2cc(N=Nc3cc(S(=O)(=O)O)c4cccnc4c3O)ccc2c1" ?
Result: inactive

Problem: // return assay outcome for "O=C(O)Cc1cc(I)c(Oc2ccc(O)c(I)c2)c(I)c1"
Result: inactive

Problem: Outcome logged for "N#Cc1ccc(N2N=C3c4ccc(C(=O)O)cc4CC[C@@H]3[C@@H]2C2CCCC2)cc1Cl" in this assay:
Result: inactive

Problem: # fetch the recorded call for CCOC(=O)c1ccc(N2C(=O)c3n[nH]c(-c4cccs4)c3C2c2ccc(C(C)(C)C)cc2)cc1 (centres undefined) here
Result: active
